Tested on: SARS-CoV-2 (Delta, B.1.617.2)
experiment: microbe, parasite or virus in culture
Type: cell-based
condition-description: Severe acute respiratory syndrome coronavirus 2, Vero C1008, 48 h; read-out: EC50 in Vero E6 cells, SARS-CoV-2 (Delta, B.1.617.2)
measurement-name: pEC50
Notebook: values listed as pEC50 are -log10 of the concentration (mol/L).

Recorded pEC50, per entry:
N#C[C@@]1(c2ccc3c(N)ncnn23)O[C@H](CO)[C@@H](O)[C@H]1O [GS-441524, reference compound] = 6.02
CCC(CC)C(=O)OC[C@H]1O[C@@](C#N)(c2ccc3c(N)ncnn23)[C@H](O)[C@@H]1O = 6.39
CC(C)CC(=O)OC[C@H]1O[C@@](C#N)(c2ccc3c(N)ncnn23)[C@H](O)[C@@H]1O = 6.37
CC(C)C(=O)OC[C@H]1O[C@@](C#N)(c2ccc3c(N)ncnn23)[C@H](O)[C@@H]1O = 6.46
CCC(CC)COC(=O)[C@H](C)N[P@](=O)(OC[C@H]1O[C@@](C#N)(c2ccc3c(N)ncnn23)[C@H](O)[C@@H]1O)Oc1ccccc1 [Remdesivir, remdesivir, reference compound] = 5.78
N#C[C@@]1(c2ccc3c(N)ncnn23)O[C@H](COC(=O)c2ccccc2)[C@@H](O)[C@H]1O = 6.02

Next molecule, pEC50 to be filled in.
Exercise: Form entry - test system: SARS-CoV-2 (Delta, B.1.617.2); read-out: pEC50; molecule: CCCC(=O)OC[C@H]1O[C@@](C#N)(c2ccc3c(N)ncnn23)[C@H](O)[C@@H]1O
Solution: 6.31
